Collected IC50 values appear next to each entry.
tested on: STS26T (26T, NF1 wild type MPNST/sarcoma cells); assay: In vitro growth of NF1 wild type MPNST cells, alamar blue, dose-response; format: cell-based, human; settings: Homo sapiens, STS-26T; Table 4; NF1 wild type (26T) sarcoma cells; read-out: IC50, 26T
MEASURE: IC50

{"COMPOUND": "CCc1cc(-c2ccccc2OS(=O)(=O)c2ccc3ccccc3c2)nn1CCNCCc1ccc(OC)c(OC)c1", "RESULT": "22.9 µM"}
{"COMPOUND": "Cc1ccc(Cn2c(=N)n(CC(O)c3ccc(Br)cc3)c3ccccc32)cc1 (stereo not drawn)", "RESULT": "19.5 µM"}
{"COMPOUND": "N=C(N)SCc1cn(-c2ccccc2)nc1-c1cccc(Br)c1", "RESULT": "50.3 µM"}

----------
test system: STS26T (26T, NF1 wild type MPNST/sarcoma cells); experiment: In vitro growth of NF1 wild type MPNST cells, alamar blue, dose-response; format: cell-based, human; conditions: Homo sapiens, STS-26T, 48 h; Table 3; STS26T cells, alamar blue, 2 days, 10 concentrations in triplicate; read-out: 26T IC50
pIC50: −log10 of the molar value.
Each entry below lists one item and its recorded pIC50 value.

{"COMPOUND": "Cc1ccc(Cn2c(=N)n(CC(O)c3ccc(Br)cc3)c3ccccc32)cc1 (stereo not drawn) [VIII]", "pIC50": 4.71}
{"COMPOUND": "Cc1ccc(Cn2c(=N)n(CC(=O)c3ccc(Br)cc3)c3ccccc32)cc1 [VII]", "pIC50": 7.25}
{"COMPOUND": "N=C(N)SCc1cn(-c2ccccc2)nc1-c1cccc(Br)c1 [Formula Ia]", "pIC50": 4.30}
{"COMPOUND": "CCc1cc(-c2ccccc2OS(=O)(=O)c2ccc3ccccc3c2)nn1CCNCCOc1ccccc1 [VI]", "pIC50": 5.72}
{"COMPOUND": "CCN(CC)C(=S)SCC(=O)n1c(C)cc(-c2ccccc2F)c1C [XI]", "pIC50": 6.00}
{"COMPOUND": "CCc1cc(-c2ccccc2OS(=O)(=O)c2ccc3ccccc3c2)nn1CCNCCc1ccc(OC)c(OC)c1 [V]", "pIC50": 4.64}
